assay: DUSP6 inhibitors restoring Erk phosphorylation by chemical complementation, primary imaging in DUSP6-transfected HeLa (AID 609); conditions: HeLa MKP-3 transfected, phospho-Erk imaging KS statistic; measured here: cell density z-score; at 10 µM; cells stimulated with TPA for 15 min
observable: z-score
Respond with the number and no other words.

Example cases with answers are listed next.
| compound | z-score |
| --- | --- |
| C=CCN=C(C)C1=C(O)CCC1=O | -0.646 |
| COc1ccc(/C(O)=C2/C(=O)C(=O)N(CCCN(C)C)C2c2ccc(C)o2)cc1Cl (stereo not given) | -0.0808 |
| COc1ccc(N2CC(=O)N(c3ccc(OC)c(OC)c3)CC2=O)cc1OC | -0.173 |
| C=C(C)CC1N(c2cccc(OC)c2)C(=O)[C@@H]2C(C(=O)O)[C@H]3C=C[C@@]12O3 (stereo not given in full) | -0.541 |
| COc1ccc(C2C(C(C)=O)=C(O)C(=O)N2c2nccs2)cc1OC (stereo not given) | -0.646 |
| CCN(CC)CCN1C(=O)C(=O)/C(=C(/O)c2c(C)[nH]c(C(=O)OC)c2C)C1c1ccccc1 (stereo not given) | 0.278 |

According to the records, this compound "Cc1nnc2n(-c3ccccc3)c(=O)c3c4c(sc3n12)COC(C)(C)C4" displays z-score of 0.218

According to the records, this compound "CN(C)CCNC(=O)C12CC3(C)CC(C)(CC(C)(C3)C1)C2" displays z-score of -1.47

According to the records, this compound "O=C(CN1CCc2[nH]c3ccccc3c2C1)N1CCCCC1" displays z-score of -1.09

According to the records, this compound COC(=O)C(NC(=O)c1ccccc1)(Nc1nc(C)cs1)C(F)(F)F (stereo not given) displays z-score of -0.446

* * *

test: inhibitors of poly I:C-induced TLR3 signaling, primary screen, cell-based, poly I:C stimulus, luciferase, 10K MLSCN set (AID 602277); details: HEK293-TLR3 RL24 IRF3 luciferase reporter, at 10 µM, stronger effect = higher value
observable: inhibition (%)
Write the value in % as a bare number.

Example cases with answers are listed next.
| compound | value |
| --- | --- |
| CCc1nnc(NC(=O)NCN2C(=O)C3C4C=CC(C4)C3C2=O)s1 (stereo unspecified) | 12.4 |
| O=c1ccc2cc3c([nH]c4ccc(Br)cc43)oc-2c1O | 24.2 |
| Cc1cc2ccccc2c(=O)n1CC(=O)Nc1ccc2c(c1)OCO2 | 23.9 |
| O=C(CN1C(=O)CCS(=O)(=O)c2ccccc21)NCc1ccc(F)cc1 | 8.14 |
| COC(=O)C1(C(F)(F)F)N=C2Sc3ccccc3N2C(N2CCOCC2)=N1 (stereo unspecified) | 26.4 |
| CCCCCCC1/C(=N/O)CCC1C(=O)OC (stereo unspecified) | 10.1 |
| CCN(CC)c1nc2nonc2nc1N(CC)CC | 21.8 |
| O=C(COc1ccc(Cl)cc1)NCc1nnc(SCC(=O)Nc2ccc3c(c2)OCCO3)o1 | -2.34 |

According to the records, this compound "COc1ccc(C(=O)Nc2cccc(C)c2)cc1S(=O)(=O)N1CCOCC1" displays inhibition of 3.92

According to the records, this compound "CCCn1c(SCC(=O)Nc2ccccc2C(=O)OC)nc2c1c(=O)n(C)c(=O)n2C" displays inhibition of 13

According to the records, this compound "Clc1cc2c(c(Cn3cnc4ccccc43)c1)OCOC2" displays inhibition of -9.55

According to the records, this compound O=C1N2c3ccccc3CCc3cccc(c32)C1(O)C(F)(F)F (stereo unspecified) displays inhibition of 12.7

According to the records, this compound "CN1CCc2c(sc3c2c(=O)n(-c2cccc(Cl)c2)c2nncn32)C1" displays inhibition of 11.7

According to the records, this compound "CCOC(=O)N1CCN(C(=O)CSc2cc(C)nc3c(-c4ccccc4OC)c(C)nn23)CC1" displays inhibition of -5.36

According to the records, this compound CCS(=O)(=O)N1CCCC(C(=O)NCc2cccc(OC)c2)C1 (stereo unspecified) displays inhibition of 3.19

According to the records, this compound "COc1ccc(Cl)cc1NC(=O)CCN1CCN(c2ccccc2C)CC1" displays inhibition of 5.86

According to the records, this compound "CCS(=O)(=O)N1CCC(C(=O)NCCc2ccc(C)cc2)CC1" displays inhibition of 10.2
